system: Staphylococcus aureus; experiment: Antimicrobial activity against Staphylococcus aureus MLS-16 MTCC 2940 assessed as inhibition zone measured after 24 hrs incubation by well diffusion method; type: functional
outcome.measure: MIC

Guide cases for MIC, answers given:
{"molecule": "COC(=O)C1(C#N)Oc2c(c(=O)oc3ccccc23)C1c1ccc(F)cc1 (stereo not given)", "MIC": "62.5 µg/mL"}
{"molecule": "COC(=O)C1(C#N)Oc2c(c(=O)oc3ccccc23)C1c1ccc(Cl)cc1 (stereo not given)", "MIC": "> 250 µg/mL"}
{"molecule": "CC(C)OC(=O)C1(C#N)Oc2c(c(=O)oc3ccccc23)C1c1ccccc1 (stereo not given)", "MIC": "125 µg/mL"}
{"molecule": "COC(=O)C1(C#N)Oc2c(c(=O)oc3ccccc23)C1c1ccc(C)cc1 (stereo not given)", "MIC": "> 250 µg/mL"}
{"molecule": "COC(=O)C1(C#N)Oc2c(c(=O)oc3ccc(C)cc23)C1c1ccccc1 (stereo not given)", "MIC": "> 250 µg/mL"}

Enter reported MIC observed with Staphylococcus aureus for COC(=O)C1(C#N)Oc2c(c(=O)oc3ccccc23)C1c1ccccc1 (stereo not given) > 250 µg/mL

###

system: Raoultella planticola; experiment: Antimicrobial activity against Klebsiella planticola MTCC 530 assessed as inhibition zone measured after 24 hrs incubation by well diffusion method; assay type: functional
List of MIC values.

// known answers, use as guide
{"compound": "COC(=O)C1(C#N)Oc2c(c(=O)oc3ccccc23)C1c1ccc(O)cc1 (stereo not given)", "MIC": "> 250 µg/mL"}
{"compound": "CCOC(=O)C1(C#N)Oc2c(c(=O)oc3ccccc23)C1c1ccc([N+](=O)[O-])cc1 (stereo not given)", "MIC": "> 250 µg/mL"}
{"compound": "CCOC(=O)C1(C#N)Oc2c(c(=O)oc3ccccc23)C1c1ccc(C(F)(F)F)cc1 (stereo not given)", "MIC": "250 µg/mL"}

Given the entry COC(=O)C1(C#N)Oc2c(c(=O)oc3ccccc23)C1c1ccc(C(F)(F)F)cc1 (stereo not given) , report its measured MIC. > 250 µg/mL

Reported MIC, compound CCOC(=O)C1(C#N)Oc2c(c(=O)oc3ccccc23)C1c1cccc2ccccc12 (stereo not given) : ____ > 250 µg/mL

MIC lookup needed for COC(=O)C1(C#N)Oc2c(c(=O)oc3ccccc23)C1c1ccc([N+](=O)[O-])cc1 (stereo not given) , thanks. > 250 µg/mL

Need MIC of COC(=O)C1(C#N)Oc2c(c(=O)oc3ccccc23)C1c1ccc(C#N)cc1 (stereo not given) , thanks. > 250 µg/mL

###

test system: Candida albicans; experiment: Antimicrobial activity against Candida albicans MTCC 3017 assessed as inhibition zone measured after 24 hrs incubation by well diffusion method; type: functional
Recorded MIC for the following molecules

{"molecule": "COC(=O)C1(C#N)Oc2c(c(=O)oc3ccccc23)C1c1ccc(O)cc1 (centres undefined)", "outcome.measure": "MIC", "obs.value": "> 250 µg/mL"}

# input molecule: COC(=O)C1(C#N)Oc2c(c(=O)oc3ccc(C)cc23)C1c1ccccc1 (centres undefined) ; wanted: its MIC > 250 µg/mL

Which MIC value is on record for CCOC(=O)C1(C#N)Oc2c(c(=O)oc3ccccc23)C1c1ccc(C(F)(F)F)cc1 (centres undefined) ? > 250 µg/mL

Given COC(=O)C1(C#N)Oc2c(c(=O)oc3ccccc23)C1c1ccccc1 (centres undefined) , state its recorded MIC. > 250 µg/mL

Would you mind telling me what MIC value was observed for COC(=O)C1(C#N)Oc2c(c(=O)oc3ccccc23)C1c1cc(OC)c(OC)c(OC)c1 (centres undefined) ? > 250 µg/mL

Suppose we examine the molecule COC(=O)C1(C#N)Oc2c(c(=O)oc3ccccc23)C1c1ccc(C(F)(F)F)cc1 (centres undefined) ; what MIC value has been reported? > 250 µg/mL

###

Each item that follows carries a reported MIC.
system: Staphylococcus aureus; assay: Antimicrobial activity against Staphylococcus aureus MLS-16 MTCC 2940 assessed as inhibition zone measured after 24 hrs incubation by well diffusion method; format: functional

Worked cases, answers included:
{"compound": "COC(=O)C1(C#N)Oc2c(c(=O)oc3ccccc23)C1c1ccc(C#N)cc1 (centres undefined)", "obs.value": "> 250 µg/mL"}
{"compound": "O=C(O)c1cn(C2CC2)c2cc(N3CCNCC3)c(F)cc2c1=O [CIPROFLOXACIN]", "obs.value": "0.9 µg/mL"}

Next:
Value lookup for MIC; key = CCOC(=O)C1(C#N)Oc2c(c(=O)oc3ccccc23)C1c1ccc([N+](=O)[O-])cc1 (centres undefined) > 250 µg/mL

###

Some molecules, each annotated with its measured MIC.
system: Raoultella planticola; test: Antimicrobial activity against Klebsiella planticola MTCC 530 assessed as inhibition zone measured after 24 hrs incubation by well diffusion method; format: functional

Consider the reported MIC for these molecules:
{"molecule": "CCOC(=O)C1(C#N)Oc2c(c(=O)oc3ccc(C)cc23)C1c1ccccc1 (stereo not drawn)", "MIC": "250 µg/mL"}
{"molecule": "COC(=O)C1(C#N)Oc2c(c(=O)oc3ccccc23)C1c1ccc(Br)cc1 (stereo not drawn)", "MIC": "> 250 µg/mL"}
{"molecule": "COC(=O)C1(C#N)Oc2c(c(=O)oc3ccccc23)C1c1ccc(Cl)cc1Cl (stereo not drawn)", "MIC": "> 250 µg/mL"}
{"molecule": "CC(C)OC(=O)C1(C#N)Oc2c(c(=O)oc3ccccc23)C1c1ccccc1 (stereo not drawn)", "MIC": "15.6 µg/mL"}

Hello, I am looking for reported MIC with Raoultella planticola for COC(=O)C1(C#N)Oc2c(c(=O)oc3ccccc23)C1c1ccc(Cl)cc1 (stereo not drawn) . Could you help? > 250 µg/mL

For the record COC(=O)C1(C#N)Oc2c(c(=O)oc3ccccc23)C1c1ccc(F)cc1 (stereo not drawn) , what value of MIC is listed for Raoultella planticola? 7.8 µg/mL

// fetch Raoultella planticola MIC for COC(=O)C1(C#N)Oc2c(c(=O)oc3ccccc23)C1c1cc(OC)c(OC)c(OC)c1 (stereo not drawn) > 250 µg/mL

# returns recorded MIC (system: Raoultella planticola) for COC(=O)C1(C#N)Oc2c(c(=O)oc3ccc(C)cc23)C1c1ccccc1 (stereo not drawn) > 250 µg/mL

Missing value: MIC, Raoultella planticola, entry O=C(O)c1cn(C2CC2)c2cc(N3CCNCC3)c(F)cc2c1=O . Fill in? 0.9 µg/mL

For the record CCOC(=O)C1(C#N)Oc2c(c(=O)oc3ccccc23)C1c1ccccc1 (stereo not drawn) , what value of MIC is listed for Raoultella planticola? > 250 µg/mL

Return MIC measured with Raoultella planticola given this molecule: COC(=O)C1(C#N)Oc2c(c(=O)oc3ccccc23)C1c1ccc(C)cc1 (stereo not drawn) > 250 µg/mL

Fill in the recorded MIC for this molecule, with Raoultella planticola as test system: COC(=O)C1(C#N)Oc2c(c(=O)oc3ccccc23)C1c1ccccc1 (stereo not drawn) > 250 µg/mL

###

tested on: Candida albicans; test: Antimicrobial activity against Candida albicans MTCC 3017 assessed as inhibition zone measured after 24 hrs incubation by well diffusion method; type: functional
Catalogue of MIC readings, one per entry.

Examples from the recorded data:
{"compound": "COC(=O)C1(C#N)Oc2c(c(=O)oc3ccccc23)C1c1ccc(C)cc1 (stereo not drawn)", "system": "Candida albicans", "obs.value": "> 250 µg/mL"}
{"compound": "COC(=O)C1(C#N)Oc2c(c(=O)oc3ccccc23)C1c1ccc(Cl)cc1Cl (stereo not drawn)", "system": "Candida albicans", "obs.value": "> 250 µg/mL"}

What does the data say about its MIC? Entry: COC(=O)C1(C#N)Oc2c(c(=O)oc3ccccc23)C1c1ccc([N+](=O)[O-])cc1 (stereo not drawn) > 250 µg/mL
